protocol.summary: Rat blood PK, IV and oral
Type: in vivo
experimental.setup: Wistar, rat, whole blood, po, 10 mg/kg, Oral 10 mg kg-1, Rat 2
readout: AUC(0-inf) (µM·h)
Expressed in µM·h, but write only the number.

Param item = Cc1nc(Nc2ncc(N3CCN(C)[C@H](C)C3)c(Nc3cc(C)n(C)n3)n2)cc(C2CC2)c1F ; retrieve measured AUC(0-inf).
38.4

###

protocol.summary: Dog plasma PK, IV and oral
Assay type: in vivo
experimental.setup: male, Beagle, dog, plasma, iv, 2.1 mg/kg, IV 2.1 mg kg-1, Mean
readout: MRT (h)
Numeric only. Scale: h

# input molecule: Cc1nc(Nc2ncc(N3CCN(C)[C@H](C)C3)c(Nc3cc(C)n(C)n3)n2)cc(C2CC2)c1F ; wanted: its MRT
15.5

###

Entries and their pIC50 values follow.
target.system: hERG (Homo sapiens, UniProt Q12809)
Construct: expressed in transfected cells; host or cells: CHO cells
Sequence (Q12809 whole entry): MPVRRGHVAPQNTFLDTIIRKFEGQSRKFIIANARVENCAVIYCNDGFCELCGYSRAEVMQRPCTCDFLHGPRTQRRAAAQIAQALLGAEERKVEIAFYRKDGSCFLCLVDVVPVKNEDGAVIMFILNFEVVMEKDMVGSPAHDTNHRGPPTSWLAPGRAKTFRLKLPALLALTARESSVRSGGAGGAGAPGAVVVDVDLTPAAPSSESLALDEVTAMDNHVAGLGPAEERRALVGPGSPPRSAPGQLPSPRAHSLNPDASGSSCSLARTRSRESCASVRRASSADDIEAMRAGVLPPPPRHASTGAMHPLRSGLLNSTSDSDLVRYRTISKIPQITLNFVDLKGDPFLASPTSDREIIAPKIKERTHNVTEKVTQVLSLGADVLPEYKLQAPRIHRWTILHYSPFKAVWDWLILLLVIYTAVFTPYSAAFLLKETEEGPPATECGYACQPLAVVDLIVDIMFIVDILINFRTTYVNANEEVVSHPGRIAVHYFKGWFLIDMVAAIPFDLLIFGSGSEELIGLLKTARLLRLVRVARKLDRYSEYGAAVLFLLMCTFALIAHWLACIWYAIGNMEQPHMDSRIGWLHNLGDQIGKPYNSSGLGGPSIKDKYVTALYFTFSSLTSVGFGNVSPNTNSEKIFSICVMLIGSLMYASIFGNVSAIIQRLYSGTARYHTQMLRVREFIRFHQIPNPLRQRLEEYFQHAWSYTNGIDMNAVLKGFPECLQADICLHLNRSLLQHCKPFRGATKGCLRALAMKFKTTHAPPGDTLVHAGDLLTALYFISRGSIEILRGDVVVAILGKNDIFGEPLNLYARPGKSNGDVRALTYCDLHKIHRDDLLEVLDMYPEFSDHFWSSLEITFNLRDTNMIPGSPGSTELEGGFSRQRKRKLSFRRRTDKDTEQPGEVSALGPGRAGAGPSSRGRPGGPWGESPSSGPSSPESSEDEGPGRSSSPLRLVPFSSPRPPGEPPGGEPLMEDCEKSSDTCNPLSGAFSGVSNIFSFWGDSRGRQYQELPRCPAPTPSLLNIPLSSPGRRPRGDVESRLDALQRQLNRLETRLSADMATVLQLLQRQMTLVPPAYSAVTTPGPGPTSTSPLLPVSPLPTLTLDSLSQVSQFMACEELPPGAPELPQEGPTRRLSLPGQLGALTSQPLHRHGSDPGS
protocol.summary: electrophysiology-based hERG assay using IonWorks HT (CHO cells)
Format: cell-based
experimental.setup: hERG IC50
Experimental: hERG IC50 was determined in an electrophysiology-based hERG assay using IonWorks HT (CHO cells) as described earlier.
In plain terms, pIC50 is the concentration in mol/L turned into minus its base-10 logarithm.

# annotated cases, reported pIC50 shown
Cc1cc(Nc2ncc(N3CCN(C)CC3)c(N3CCCC3)n2)ccn1 [compound 2]: 4.07
CCc1ccc(Nc2ncc(N3CCN(C)CC3)c(N3CCCC3)n2)cc1 [compound 1]: 5.43

Reported pIC50, molecule Cc1nc(Nc2ncc(N3CCN(C)[C@H](C)C3)c(Nc3cc(C)n(C)n3)n2)cc(C2CC2)c1F [compound 12] : ____
4.48

###

protocol.summary: Rat blood PK, IV and oral
Format: in vivo
experimental.setup: Wistar, rat, whole blood, po, 10 mg/kg, Oral 10 mg kg-1, Mean
readout: Cmax (nM)
State just the number; it will be interpreted in nM.

Requested read-out: Cmax. Entry: Cc1nc(Nc2ncc(N3CCN(C)[C@H](C)C3)c(Nc3cc(C)n(C)n3)n2)cc(C2CC2)c1F
2000

###

protocol.summary: Dog plasma PK, IV and oral
Assay type: in vivo
experimental.setup: male, Beagle, dog, plasma, po, 5.1 mg/kg, Oral 5.1 mg kg-1, Mean
readout: bioavailability
Please make sure the unit comes right after the number.

Request the reported bioavailability associated with Cc1nc(Nc2ncc(N3CCN(C)[C@H](C)C3)c(Nc3cc(C)n(C)n3)n2)cc(C2CC2)c1F [compound 12]
92.3%

###

protocol.summary: Rat blood PK, IV and oral
Assay type: in vivo
experimental.setup: Wistar, rat, whole blood, oral, 10 mg/kg, rat; read-out: Rat F (bioavailability)
Measured bioavailability accompanies every entry in the list below.
Return type: number; implicit unit %.

Cc1nc(Nc2ncc(N3CCN(C)[C@H](C)C3)c(Nc3cc(C)n(C)n3)n2)cc(C2CC2)c1F: 80

Turning now to a further compound:
Fill blank: measured bioavailability of the compound CCc1cc(Nc2ncc(N3CCN[C@H](C)C3)c(Nc3cc(C)n(C)n3)n2)nc(C)c1F.Cl.Cl is ____.
31

###

protocol.summary: Dog plasma PK, IV and oral
Format: in vivo
experimental.setup: male, Beagle, dog, plasma, po, 5.1 mg/kg, Oral 5.1 mg kg-1, Dog 2
Experimental: Pharmacokinetic studies to estimate the blood levels of compounds in dogs. PK in fasted, male Beagle dogs (n = 2 per dose) was studied after a single dose administered by intravenous infusion for 15 min (IV) or by an oral route (PO). […] 48 hours after an oral dose of 5 mg/kg. Blood samples were centrifuged and plasma samples were analyzed by LC/MS/MS. […]
readout: bioavailability (%)
Numeric only. Scale: %

Record request: bioavailability value, item Cc1nc(Nc2ncc(N3CCN(C)[C@H](C)C3)c(Nc3cc(C)n(C)n3)n2)cc(C2CC2)c1F [compound 12]
96.4
